meta.source: ChEMBL document CHEMBL1134049

Biological target: Tubulin (Sus scrofa, UniProt P02554+P02550)
Test: Effect on tubulin binding and the concentration required to cause 50% decrease in tubulin assembly at 350 nm.
Type: protein assay
readout-type: IC50 (µM)
Value expressed in µM; do not type the unit.

INPUT: Note IC50 for the compound shown: COc1ccc(Oc2cc(OC)c(OC)c(OC)c2)cc1O
OUTPUT: 16.3

INPUT: Using the record for COc1ccc(OCc2cc(OC)c(OC)c(OC)c2)cc1O , state its measured IC50.
OUTPUT: 22.5

INPUT: Hello, please tell me recorded IC50 for this one: COc1ccc(OCc2cc(OC)c(OC)c(OC)c2)cc1C=O
OUTPUT: 0.6

INPUT: Could you please provide reported IC50 for COc1ccc(COc2cc(OC)c(OC)c(OC)c2)cc1O ? Thanks!
OUTPUT: 6.6

* * *

Molecular target: Tubulin (Sus scrofa, UniProt P02554+P02550)
Assay: Concentration required to cause 50% decrease in the binding of [3H]colchicine from purified porcine tubulin.
Assay type: protein assay
readout-type: IC50 (µM)
Write the number in µM without appending the unit.

INPUT: Tell us which IC50 value is on record for COc1ccc(OCc2cc(OC)c(OC)c(OC)c2)cc1O
OUTPUT: 226

INPUT: Note down IC50 recorded for COc1ccc(Nc2cc(OC)c(OC)c(OC)c2)cc1O
OUTPUT: 298

INPUT: For the compound COc1ccc(Oc2cc(OC)c(OC)c(OC)c2)cc1O , report IC50.
OUTPUT: 36

INPUT: Please report the measured IC50 for COc1ccc(OCc2cc(OC)c(OC)c(OC)c2)cc1C=O
OUTPUT: 4

INPUT: Input COc1ccc(COc2cc(OC)c(OC)c(OC)c2)cc1O , output reported IC50.
OUTPUT: 36
